Recorded measurements of GI50, one per entry
- System: HCC827-YVMA cells (human ERBB2 exon20 insertion mutant A775_G776ins YVMA)
- experiment.description: Cell growth inhibition (CellTiter-Glo, 3 days) in HCC827-YVMA
- Assay type: cell-based
- recorded.conditions: 72 h, 3 days after administration

In the examples that follow, each entry is paired with its recorded GI50.
C=CC(=O)N1CCC(Nc2cc3c(Nc4ccc(Oc5ccnc(N6C[C@@H]7C[C@H]6CO7)c5)cc4F)ncnc3cc2OC)CC1 | 60 to 100 nM
C=CC(=O)N1CCC(Nc2cc3c(Nc4ccc(Oc5ccnc(N6C[C@H]7C[C@@H]6CO7)c5)cc4F)ncnc3cc2OC)CC1 | 30 to 60 nM

Tested on HCC827-YVMA cells (human ERBB2 exon20 insertion mutant A775_G776ins YVMA): "C=CC(=O)N1CCC(Nc2cc3c(Nc4ccc(Oc5ccnc(-c6ncc(C)s6)c5)cc4F)ncnc3cc2OC)CC1" . Observed GI50: 30 to 60 nM

Tested on HCC827-YVMA cells (human ERBB2 exon20 insertion mutant A775_G776ins YVMA): "C=CC(=O)N1CCC(Nc2cc3c(Nc4ccc(Oc5ccnc(N6CCC(OC)CC6)c5)cc4F)ncnc3cc2OC)CC1" . Observed GI50: < 30 nM

Tested on HCC827-YVMA cells (human ERBB2 exon20 insertion mutant A775_G776ins YVMA): "C=CC(=O)N1CCC(Nc2cc3c(Nc4ccc(Oc5ccnc(N6CC(F)(F)C6)c5)cc4F)ncnc3cc2OC)CC1" . Observed GI50: < 30 nM

Tested on HCC827-YVMA cells (human ERBB2 exon20 insertion mutant A775_G776ins YVMA): "C=CC(=O)N1CCC(Nc2cc3c(Nc4ccc(Oc5ccnc(-c6nccs6)c5)cc4F)ncnc3cc2OC)CC1" . Observed GI50: < 30 nM

Tested on HCC827-YVMA cells (human ERBB2 exon20 insertion mutant A775_G776ins YVMA): "C=CC(=O)N1CCC(Nc2cc3c(Nc4ccc(Oc5ccnc(N6CCC[C@H]6C)c5)cc4F)ncnc3cc2OC)CC1" . Observed GI50: 60 to 100 nM

Tested on HCC827-YVMA cells (human ERBB2 exon20 insertion mutant A775_G776ins YVMA): "C=CC(=O)N1CCC(Nc2cc3c(Nc4ccc(Oc5ccn(-c6cnc(C)c(F)c6)n5)cc4F)ncnc3cc2OC)CC1" . Observed GI50: < 30 nM

Tested on HCC827-YVMA cells (human ERBB2 exon20 insertion mutant A775_G776ins YVMA): "C=CC(=O)N1CCC(Nc2cc3c(Nc4ccc(Oc5ccnn5-c5cnc(OC)c(F)c5)cc4F)ncnc3cc2OC)CC1" . Observed GI50: ≥ 1000 nM

Tested on HCC827-YVMA cells (human ERBB2 exon20 insertion mutant A775_G776ins YVMA): "C=CC(=O)Nc1cc2c(Nc3ccc(Oc4ccnc(N5C[C@@H](C)O[C@@H](C)C5)c4)cc3F)ncnc2cc1OCC" . Observed GI50: ≥ 1000 nM

###

- System: HCC827-YVMA cells (human ERBB2 exon20 insertion mutant A775_G776ins YVMA)
- experiment.description: Cell growth inhibition (CellTiter-Glo, 3 days) in HCC827-YVMA
- Assay type: cell-based
- recorded.conditions: 72 h, 3 days after administration
measured.parameter: GI50

C=CC(=O)N1CCC(Nc2cc3c(Nc4ccc(Oc5nc(-c6ccc(OC)nn6)cs5)cc4F)ncnc3cc2OC)CC1 [Example 56] | < 30 nM

Entry under test: C=CC(=O)N1CCC(Nc2cc3c(Nc4ccc(Oc5ccnc(N6C[C@@H](F)[C@@H](F)C6)c5)cc4F)ncnc3cc2OC)CC1 [Example 253] . Its GI50 was 30 to 60 nM

Entry under test: C=CC(=O)N1CCC(Nc2cc3c(Nc4ccc(Oc5ccnc(C6=CCN(C)CC6)c5)cc4F)ncnc3cc2OC)CC1 [Example 213] . Its GI50 was 300 to 600 nM

###

Record: GI50 reported on A431 cells.

Tested on A431 cells: "C=CC(=O)N1CC[C@H](Nc2cc3c(Nc4ccc(Oc5ccn(-c6cnc(OC)nc6)n5)cc4F)ncnc3cc2OC)C1" . Observed GI50: 300 to 600 nM

Tested on A431 cells: "C=CC(=O)N1CCC(Nc2cc3c(Nc4ccc(Oc5ccnc(N6C[C@H](C)O[C@@H](C)C6)c5)cc4F)ncnc3cc2OC)CC1" . Observed GI50: ≥ 1000 nM

Tested on A431 cells: "C=CC(=O)N1CCC(Nc2cc3c(Nc4ccc(Oc5ccnc(N6CCCC6)c5)cc4F)ncnc3cc2OC)CC1" . Observed GI50: 100 to 300 nM

Tested on A431 cells: "C=CC(=O)N1CCC(Nc2cc3c(Nc4ccc(Oc5ccnc(N6CC[C@H](CO)C6)c5)cc4F)ncnc3cc2OC)CC1" . Observed GI50: ≥ 1000 nM

Tested on A431 cells: "C=CC(=O)N1CCC(Nc2cc3c(Nc4ccc(Oc5ccnc(C6CCN(C)CC6)c5)cc4F)ncnc3cc2OC)CC1" . Observed GI50: ≥ 1000 nM

Tested on A431 cells: "C=CC(=O)N1CCC(Nc2cc3c(Nc4ccc(Oc5ccnc(N6CCC(C)(OC)CC6)c5)cc4F)ncnc3cc2OC)CC1" . Observed GI50: ≥ 1000 nM

Tested on A431 cells: "C=CC(=O)N1CC[C@H](Oc2cc3c(Nc4ccc(Oc5ccn(-c6cnc(OC)nc6)n5)cc4F)ncnc3cc2OC)C1" . Observed GI50: 300 to 600 nM

Tested on A431 cells: "C=CC(=O)N1CCC(Nc2cc3c(Nc4ccc(Oc5ccn6ncnc6c5)c(Cl)c4)ncnc3cc2OC)CC1" . Observed GI50: < 30 nM

Tested on A431 cells: "C=CC(=O)N1CCC(Nc2cc3c(Nc4ccc(Oc5ccnc(N6C[C@H]7C[C@@H]6CO7)c5)cc4F)ncnc3cc2OC)CC1" . Observed GI50: 600 to 1000 nM

Tested on A431 cells: "C=CC(=O)N1CCC(Nc2cc3c(Nc4ccc(Oc5ccn(-c6cnc(C)c(C#N)c6)n5)cc4F)ncnc3cc2OC)CC1" . Observed GI50: 100 to 300 nM

Tested on A431 cells: "C=CC(=O)N1CCC(Nc2cc3c(Nc4ccc(Oc5ccnc(N6CC[C@H](C#N)C6)c5)cc4F)ncnc3cc2OC)CC1" . Observed GI50: ≥ 1000 nM

Tested on A431 cells: "C=CC(=O)N1CCC(Nc2cc3c(Nc4ccc(Oc5ccnc(-n6cc(C)cn6)n5)cc4F)ncnc3cc2OC)CC1" . Observed GI50: 300 to 600 nM

Tested on A431 cells: "C=CC(=O)N1CCC(Nc2cc3c(Nc4ccc(Oc5ccnc(N6CCOC[C@@H]6C)c5)cc4F)ncnc3cc2OC)CC1" . Observed GI50: ≥ 1000 nM

Tested on A431 cells: "C=CC(=O)N1CCC(Nc2cc3c(Nc4ccc(Oc5nc(-c6ccc(OC)nc6)cs5)cc4F)ncnc3cc2OC)CC1" . Observed GI50: 100 to 300 nM

Tested on A431 cells: "C=CC(=O)N1CCC(Nc2cc3c(Nc4ccc(Oc5ccnc(N6C[C@H]7CCCC[C@H]7C6)c5)cc4F)ncnc3cc2OC)CC1" . Observed GI50: 600 to 1000 nM

Tested on A431 cells: "C=CC(=O)N1CC[C@@H](Nc2cc3c(Nc4ccc(Oc5ccn(-c6cnc(OC)nc6)n5)cc4F)ncnc3cc2OC)C1" . Observed GI50: ≥ 1000 nM

###

Recorded measurements of GI50, one per entry
- Test system: A431 cells

In the examples that follow, each entry is paired with its recorded GI50.
C=CC(=O)N1CCC(Nc2cc3c(Nc4ccc(Oc5ccn(-c6cnc7ccccc7c6)n5)cc4F)ncnc3cc2OC)CC1 | 100 to 300 nM
C=CC(=O)N1CCC(Nc2cc3c(Nc4ccc(Oc5ccn(-c6ccc(C)nc6)n5)cc4F)ncnc3cc2OCC)CC1 | 100 to 300 nM

Tested on A431 cells: "C=CC(=O)N1CCC(Nc2cc3c(Nc4ccc(Oc5ccnc(N6CC(C)(C#N)C6)c5)cc4F)ncnc3cc2OC)CC1" . Observed GI50: 100 to 300 nM

Tested on A431 cells: "C=CC(=O)N1CCC(Nc2cc3c(Nc4ccc(Oc5ccnc(N6C[C@@H](C)O[C@@H](C)C6)c5)cc4F)ncnc3cc2OC)CC1" . Observed GI50: ≥ 1000 nM

Tested on A431 cells: "C=CC(=O)N1CCC(Nc2cc3c(Nc4ccc(Oc5ccn(-c6cnc(C)c(F)c6)n5)c(Cl)c4)ncnc3cc2OC)CC1" . Observed GI50: 100 to 300 nM

###

Record: GI50 reported on A431 cells.

C=CC(=O)N1CCC(Nc2cc3c(Nc4ccc(Oc5ccnc(N6CCC[C@@H](N)C6)c5)cc4F)ncnc3cc2OC)CC1 [Example 217] | ≥ 1000 nM
C=CC(=O)N1CCC(Nc2cc3c(Nc4ccc(Oc5ccnc(NC6CCN(C)CC6)c5)cc4F)ncnc3cc2OC)CC1 [Example 184] | ≥ 1000 nM
C=CC(=O)N1CCC(Nc2cc3c(Nc4ccc(Oc5ccnc(N6CCC[C@@H](OC)C6)c5)cc4F)ncnc3cc2OC)CC1 [Example 164] | 600 to 1000 nM

Tested on A431 cells: C=CC(=O)N1CCC(Nc2cc3c(Nc4ccc(Oc5ccnc(N(C)CCOC)c5)cc4F)ncnc3cc2OC)CC1 [Example 116] . Observed GI50: 600 to 1000 nM

Tested on A431 cells: C=CC(=O)N1CCC(Nc2cc3c(Nc4ccc(Oc5ccn(-c6cnc(C)cc6C)n5)cc4F)ncnc3cc2OC)CC1 [Example 37] . Observed GI50: 300 to 600 nM

Tested on A431 cells: C=CC(=O)N1CCC(Nc2cc3c(Nc4ccc(Oc5ccn(-c6cnc(OC)nc6)n5)cc4F)ncnc3cc2OC)CC1 [Compound 1] . Observed GI50: 300 to 600 nM

Tested on A431 cells: C=CC(=O)N1CCC(Nc2cc3c(Nc4ccc(Oc5ccn(-c6cc(F)c(C)cn6)n5)cc4F)ncnc3cc2OC)CC1 [Compound 15] . Observed GI50: 100 to 300 nM

Tested on A431 cells: C=CC(=O)N1CCC(Nc2cc3c(Nc4ccc(Oc5ccnc(-c6cccnc6)c5)cc4F)ncnc3cc2OC)CC1 [Example 237] . Observed GI50: ≥ 1000 nM
